System: MS2 coat protein
Assay: apparent KD of MS2 coat protein; higher = weaker reporter binding
Conditions: Eterna round: R107; input ligand: theophylline 2 mM
measurement.kind: apparent KD of MS2 coat protein (nM)
I only need the number, in nM, no unit after it.

Measured apparent KD of MS2 coat protein, GACAGAAACUGAAGGAGCGAGGUAAAACGGGAUGAGCAAACAUGAGGAUCACCCAUGUGGCCUCAGGUAGGUCGCAGAAAGAAAC [Exclusion Arginine B GF24] : 123

Record ACAGGAAACGGAAGGAGCGGAAUUGCAACAUGAGGAUCACCCAUGUUGAUCGUGAGUUGCUUCCAGGUAGGUCGCCGUUACCUAA [Erorve] . Reported apparent KD of MS2 coat protein: 44.2

Input CUCUGAGUGAUCGCUCACUCAGAGGCGGAUACCAGCGAGGUCCAUCGCCCUUGGCAGCCGAACAUGAGGAUCACCCAUGUCGGUA [#1 Same State - Theophylline A Attempt #20 (HarryS)] . Output apparent KD of MS2 coat protein: 12.9

Record GGUUGGUGUAGAGAUAUAUUGAUUACUGAAGGAGCGGGAAGAAACCCAGGUAGGUCGCAGAGAUCCACAUGAGGAUCACCCAUGU [!0.L] , field apparent KD of MS2 coat protein: 59.3

Measured apparent KD of MS2 coat protein, AGAUUCGACACGGCCGCCACUCGUGACAGAUUUCGCAGUGGUCAACAUGAGGAUCACCCAUGUCUGAGGACCGGGUGUUGAGUCU [XTryp B #9] : 41.1

apparent KD of MS2 coat protein in this record for GUUUACAUGAGGAUCACCCAUGUCGCCGGCCGAGGACCGGUACGGCCGCCACUCGUCCUAAUGGCACUUGACUUCCCUAUUAAGU [theeternabot_sameState_MS2_Trp_A_33] : 25.5
